Target: CK2A2 (Homo sapiens, UniProt P19784)
Construct: purchased Eurofins
Sequence (P19784 whole entry): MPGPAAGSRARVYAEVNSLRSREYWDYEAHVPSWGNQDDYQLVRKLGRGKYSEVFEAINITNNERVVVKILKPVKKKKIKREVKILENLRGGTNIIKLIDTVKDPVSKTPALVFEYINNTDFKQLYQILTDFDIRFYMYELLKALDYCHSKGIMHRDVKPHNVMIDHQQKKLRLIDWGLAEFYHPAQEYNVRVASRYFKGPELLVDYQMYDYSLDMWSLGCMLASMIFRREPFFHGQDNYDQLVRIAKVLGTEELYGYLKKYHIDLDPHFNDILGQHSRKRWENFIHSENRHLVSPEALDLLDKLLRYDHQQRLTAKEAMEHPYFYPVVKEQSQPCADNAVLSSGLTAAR
Experiment: Radiometric kinase assay (Eurofins), CK2A2
Assay type: biochemical
Conditions: Table 8; quinazolinones; read-out: CK2A2 RAD IC50
From the text: • ^1Radiometric kinase assay from Eurofins. Performed in astrocytes with a Promega Lumit IL-6 kit.
pIC50: −log10 of the molar value.
Let's look at some compounds and their measured pIC50.
parameter: pIC50

In [3]: df
Out[3]:
                                   compound                        measuredtarget  relationsymbol  reportedvalue
0  O=c1[nH]c(-c2ccc(O)c(C(F)(F)F)c2)nc2c(Cl)cc(Cl)cc12 [JKT.809A]  CK2A2 (Homo sapiens, UniProt P19784)               <           5.30
1  Cn1c(-c2cc(F)c(O)c(F)c2)nc2c(Br)cccc2c1=O [JKT.873A]  CK2A2 (Homo sapiens, UniProt P19784)               =           6.19
2  COc1cc(-c2nc3c(Br)cccc3c(=O)n2C)ccc1O [JKT.877A]  CK2A2 (Homo sapiens, UniProt P19784)               <           5.30
3  COc1nc(-c2ccc(O)c(Br)c2)nc2c(Br)cc(Br)cc12 [JKT.842A]  CK2A2 (Homo sapiens, UniProt P19784)               =           5.95
4  O=c1[nH]c(-c2cc(Br)c(O)cn2)nc2c(Br)cc(Br)cc12 [JKT.932F]  CK2A2 (Homo sapiens, UniProt P19784)               =           7.00
